System: MSV
Assay type: in vivo
Condition Label: 8 mg/kg, intraperitoneal, 5 daily doses, newborn NMRI mice
Some molecules, each annotated with its measured Number of Mice not Developing a Tumor (percent).
Measured Quantity: Number of Mice not Developing a Tumor (percent) (%)

[[record]]
molecule = "Nc1cc(OCCOCP(=O)(O)O)nc(N)n1"
unit_name = "%"
recorded_number = 44

[[record]]
molecule = "Nc1ncnc2c1ncn2CCOCP(=O)(O)O [PMEA, 9-[(2-phosphono-methoxy)ethyl]adenine, reference compound]"
unit_name = "%"
recorded_number = 44

[[record]]
molecule = "Nc1cc(SCCOCP(=O)(O)O)nc(N)n1"
unit_name = "%"
recorded_number = 0

[[record]]
molecule = "C[C@H](Cn1cnc2c(N)ncnc21)OCP(=O)(O)O [(R)-PMPA, reference compound]"
unit_name = "%"
recorded_number = 65

[[record]]
molecule = "C[C@H](COc1cc(N)nc(N)n1)OCP(=O)(O)O"
unit_name = "%"
recorded_number = 15


---

Test Protocol: MT-4 cell toxicity (trypan blue exclusion)
Assay type: cell-based
Condition Label: human; reduction of cell viability; Table 2
Measured Quantity: CC50 at 5 days (µg/mL)

[[record]]
compound = "Nc1ncnc2c1ncn2CCOCP(=O)(O)O [PMEA, 9-[(2-phosphono-methoxy)ethyl]adenine, reference compound]"
measured_quantity = "CC50 at 5 days"
unit_name = "µg/mL"
recorded_number = 28


---

Tested on: HIV-1(IIIB)
Test Protocol: HIV-1(IIIB)-induced cytopathicity in CEM cell cultures
Assay type: cell-based
Condition Label: Human immunodeficiency virus 1, CCRF-CEM; HIV-1 (IIIB) in CEM; dCyd 1 mM; read-out: EC50 upon addition of dCyd (1 mM)
Some compounds, each annotated with its measured EC50.
Measured Quantity: EC50 (µg/mL)

[[record]]
compound = "Nc1cc(OCCOCP(=O)(O)O)nc(N)n1 [Compound 1]"
recorded_number = 0.55

[[record]]
compound = "Nc1ncnc2c1ncn2CCOCP(=O)(O)O [PMEA, 9-[(2-phosphono-methoxy)ethyl]adenine, reference compound]"
recorded_number = 2.1

[[record]]
compound = "Nc1nc(O)cc(OCCOCP(=O)(O)O)n1 [Compound 4]"
recorded_number = 2.4

[[record]]
compound = "Nc1cc(SCCOCP(=O)(O)O)nc(N)n1 [Compound 2]"
recorded_number = 2.1


---

Tested on: HIV-1(IIIB)
Test Protocol: HIV-1(IIIB)-induced cytopathicity in CEM cell cultures
Assay type: cell-based
Condition Label: Human immunodeficiency virus 1, CCRF-CEM; HIV-1 (IIIB) in CEM, no addition; Table 3; read-out: EC50 as such
Experimental: Viruses. […] Characteristics of viral stocks used for this study were 2.1×10^8 HIV-RNA genomes/ml (corresponding to 35 ng of p24 antigen) and 5,000 tissue culture infectious doses 50% per ml (TCID50/ml) as assessed by virus titration in other primary M/M cultures. […]
Measured Quantity: EC50 (µg/mL)

[[record]]
compound = "Nc1ncnc2c1ncn2CCOCP(=O)(O)O [PMEA, 9-[(2-phosphono-methoxy)ethyl]adenine, reference compound]"
tgt = "HIV-1(IIIB)"
measured_quantity = "EC50"
unit_name = "µg/mL"
recorded_number = 0.94

[[record]]
compound = "Nc1cc(SCCOCP(=O)(O)O)nc(N)n1"
tgt = "HIV-1(IIIB)"
measured_quantity = "EC50"
unit_name = "µg/mL"
recorded_number = 1.9

[[record]]
compound = "Nc1cc(OCCOCP(=O)(O)O)nc(N)n1"
tgt = "HIV-1(IIIB)"
measured_quantity = "EC50"
unit_name = "µg/mL"
recorded_number = 0.77

[[record]]
compound = "Nc1nc(O)cc(OCCOCP(=O)(O)O)n1"
tgt = "HIV-1(IIIB)"
measured_quantity = "EC50"
unit_name = "µg/mL"
recorded_number = 1.4

